Tested on: F culmorum
assay_procedure: Specific antifungal activity of Rs-AFP2 isoforms in SMF− and SMF+ media
Assay type: cell-based
condition_parameters: 1/IC50 of mutant divided by that of yRs-AFP2 x 100; 48 hour incubation; SMF with 1 mM CaCl2 and 50 mM KCl; preliminary tests
Entries annotated with measured RELATIVE SPECIFIC ACTIVITY (%) IN MEDIUM SMF+
recorded_endpoint: RELATIVE SPECIFIC ACTIVITY (%) IN MEDIUM SMF+

substance | assay_system | result
yRs-AFP2/F49R (QKLCQRPSGTWSGVCGNNNACKNQCIRLEKARHGSCNYVFPAHKCICYRPC; listed as Raphanus sativus) | F culmorum | 22%
yRs-AFP2/P7-: yeast-expressed Rs-AFP2 isoform with proline deletion at position 7 (QKLCQRSGTWSGVCGNNNACKNQCIRLEKARHGSCNYVFPAHKCICYFPC; listed as Raphanus sativus) | F culmorum | 17%
yRs-AFP2/K44Q (QKLCQRPSGTWSGVCGNNNACKNQCIRLEKARHGSCNYVFPAHQCICYFPC; listed as Raphanus sativus) | F culmorum | 114%
yRs-AFP2/S12R (QKLCQRPSGTWRGVCGNNNACKNQCIRLEKARHGSCNYVFPAHKCICYFPC; listed as Raphanus sativus) | F culmorum | 31%
yRs-AFP2/G9R: yeast-expressed Rs-AFP2 isoform, position 9 glycine to arginine (QKLCQRPSRTWSGVCGNNNACKNQCIRLEKARHGSCNYVFPAHKCICYFPC; listed as Raphanus sativus) | F culmorum | 285%

---

Tested on: F culmorum
assay_procedure: Specific antifungal activity of Rs-AFP2 isoforms in SMF− and SMF+ media
Type: cell-based
Set-up: unit not given here
condition_parameters: 72 hours growth; high salt medium (1 mM CaCl2, 50 mM KCl); triplicate
The entries below are paired with their reported IC50 SMF+.
recorded_endpoint: IC50 SMF+

substance | assay_system | relational_operator | measured_number
yRs-AFP2/F49R (QKLCQRPSGTWSGVCGNNNACKNQCIRLEKARHGSCNYVFPAHKCICYRPC; listed as Raphanus sativus) | F culmorum | = | 23.0
yRs-AFP2/F40M (QKLCQRPSGTWSGVCGNNNACKNQCIRLEKARHGSCNYVMPAHKCICYFPC; listed as Raphanus sativus) | F culmorum | = | 54.0
yRs-AFP2/L28R (QKLCQRPSGTWSGVCGNNNACKNQCIRREKARHGSCNYVFPAHKCICYFPC; listed as Raphanus sativus) | F culmorum | > | 100
yRs-AFP2/N37R (QKLCQRPSGTWSGVCGNNNACKNQCIRLEKARHGSCRYVFPAHKCICYFPC; listed as Raphanus sativus) | F culmorum | = | 7.0

---

Tested on: F culmorum
assay_procedure: Specific antifungal activity of Rs-AFP2 isoforms in SMF− and SMF+ media
Assay type: cell-based
Set-up: unit not given here
condition_parameters: 72 hours growth; high salt medium (1 mM CaCl2, 50 mM KCl); triplicate

substance | IC50 SMF+
yRs-AFP2/W11S (QKLCQRPSGTSSGVCGNNNACKNQCIRLEKARHGSCNYVFPAHKCICYFPC; listed as Raphanus sativus) | >100
yRs-AFP2/H33A (QKLCQRPSGTWSGVCGNNNACKNQCIRLEKARAGSCNYVFPAHKCICYFPC; listed as Raphanus sativus) | >100
yRs-AFP2/I46R (QKLCQRPSGTWSGVCGNNNACKNQCIRLEKARHGSCNYVFPAHKCRCYFPC; listed as Raphanus sativus) | >40
yRs-AFP2/T10G (QKLCQRPSGGWSGVCGNNNACKNQCIRLEKARHGSCNYVFPAHKCICYFPC; listed as Raphanus sativus) | >100
yRs-AFP2/Y38G (QKLCQRPSGTWSGVCGNNNACKNQCIRLEKARHGSCNGVFPAHKCICYFPC; listed as Raphanus sativus) | >200
